Source listed as patent US20240415914A1.

Format: physicochemical
Setup conditions: stored at room temperature (21-25° C.), day 23
Measured property: Stability in Powder Concentrate (content by LCMSMS) (mg/g powder)

Compound	Test result
CCCCCc1cc(O)c2c(c1)OC1(C)CCC3C1C2C3(C)C (stereo not shown)	0.051
Cc1c(C)c2c(c(C)c1O)CC[C@@](C)(CCC[C@H](C)CCC[C@H](C)CCCC(C)C)O2	4.91
CCCc1cc(O)c2c(c1)OC(C)(C)[C@@H]1CCC(C)=C[C@@H]21 [THCV, delta-9-tetrahydrocannabivarin]	0.687
CCCCCc1cc(O)c(C/C=C(\C)CCC=C(C)C)c(O)c1	1.13
CCCCCc1cc2c(c(O)c1C(=O)O)[C@@H]1C=C(C)CC[C@H]1C(C)(C)O2 [D9 THCA, delta-9-tetrahydrocannabinolic acid]	0.147
CC(=O)Oc1c(C)c(C)c2c(c1C)CCC(C)(CCC[C@H](C)CCC[C@H](C)CCCC(C)C)O2 (stereo partly drawn) [α-Tocopheryl acetate]	2.16
CCCCCc1cc(O)c2c(c1)OC(C)(C)c1ccc(C)cc1-2	0.469

----------
Assay overview: Stability of cannabinoid and Vitamin E components of Beverage 1 (AB White) stored at 8° C. and 21-25° C., LCMSMS over 570 days
Format: physicochemical
Setup conditions: beverage stored at 21-25° C., day 26
Recorded measurements of Stability in AB White, 21-25° C. (content by LCMSMS), one per entry
Measured property: Stability in AB White, 21-25° C. (content by LCMSMS) (µg/mL)

Compound	Units of measure	Test result
CCCCCc1cc(O)c2c(c1)OC(C)(C)[C@@H]1CCC(C)=C[C@@H]21 [D9 THC, delta-9-tetrahydrocannabinol, reference compound]	µg/mL	12.1
CCCc1cc(O)c2c(c1)OC(C)(C)[C@@H]1CCC(C)=C[C@@H]21 [THCV, delta-9-tetrahydrocannabivarin]	µg/mL	3.55
CCCCCc1cc2c(c(O)c1C(=O)O)[C@@H]1C=C(C)CC[C@H]1C(C)(C)O2 [D9 THCA, delta-9-tetrahydrocannabinolic acid]	µg/mL	0.921
C=C(C)[C@@H]1CCC(C)=C[C@H]1c1c(O)cc(CCCCC)c(C(=O)O)c1O	µg/mL	1.75
CCCCCc1cc(O)c2c(c1)OC1(C)CCC3C1C2C3(C)C (stereo not drawn)	µg/mL	0.549
CCCCCc1cc(O)c2c(c1)OC(C)(CCC=C(C)C)C=C2 (stereo not drawn)	µg/mL	0.308
CCCCCc1cc(O)c(C/C=C(\C)CCC=C(C)C)c(O)c1	µg/mL	4.78
C=C(C)[C@@H]1CCC(C)=C[C@H]1c1c(O)cc(CCC)cc1O	µg/mL	0.149
CCCCCc1cc(O)c2c(c1)OC(C)(C)c1ccc(C)cc1-2	µg/mL	2.69

----------
Recorded measurements of Stability in AB White, 8° C. (content by LCMSMS), one per entry
Assay overview: Stability of cannabinoid and Vitamin E components of Beverage 1 (AB White) stored at 8° C. and 21-25° C., LCMSMS over 570 days
Type: physicochemical
Setup conditions: beverage stored at 8° C., day 510
Measured property: Stability in AB White, 8° C. (content by LCMSMS) (µg/mL)

Molecule	Test result
C=C(C)[C@@H]1CCC(C)=C[C@H]1c1c(O)cc(CCCCC)cc1O [CBD, cannabidiol, reference compound]	26.48
CCCc1cc(O)c2c(c1)OC(C)(C)[C@@H]1CCC(C)=C[C@@H]21 [THCV, delta-9-tetrahydrocannabivarin]	3.34
CCCCCc1cc(O)c2c(c1)OC(C)(C)[C@@H]1CCC(C)=C[C@@H]21 [D9 THC, delta-9-tetrahydrocannabinol, reference compound]	11.33
CCCCCc1cc(O)c2c(c1)OC1(C)CCC3C1C2C3(C)C (stereo not shown)	0.514
CCCCCc1cc(O)c2c(c1)OC(C)(C)c1ccc(C)cc1-2	2.60
CCCCCc1cc2c(c(O)c1C(=O)O)[C@@H]1C=C(C)CC[C@H]1C(C)(C)O2 [D9 THCA, delta-9-tetrahydrocannabinolic acid]	0.873
C=C(C)[C@@H]1CCC(C)=C[C@H]1c1c(O)cc(CCC)cc1O	0.138
CCCCCc1cc(O)c(C/C=C(\C)CCC=C(C)C)c(O)c1	4.49
CCCCCc1cc(O)c2c(c1)OC(C)(CCC=C(C)C)C=C2 (stereo not shown)	0.295
C=C(C)[C@@H]1CCC(C)=C[C@H]1c1c(O)cc(CCCCC)c(C(=O)O)c1O	1.61

----------
Assay overview: Stability of cannabinoid and Vitamin E components of Beverage 2 (AB Red) stored at 8° C. and 21-25° C., LCMSMS over 570 days
Setup conditions: 21-25° C., 5 days

Molecule	Stability of Cannabinoids in AB Red / µg/mL
CCCCCc1cc(O)c(C/C=C(\C)CCC=C(C)C)c(O)c1 [CBG, cannabigerol]	4.66
CCCCCc1cc(O)c2c(c1)OC(C)(C)c1ccc(C)cc1-2 [CBN, cannabinol]	2.71
C=C(C)[C@@H]1CCC(C)=C[C@H]1c1c(O)cc(CCCCC)c(C(=O)O)c1O [CBDA, cannabidiolic acid]	1.69
CCCCCc1cc(O)c2c(c1)OC(C)(C)[C@@H]1CCC(C)=C[C@@H]21 [D9 THC, delta-9-tetrahydrocannabinol, reference compound]	12.4
CCCCCc1cc2c(c(O)c1C(=O)O)[C@@H]1C=C(C)CC[C@H]1C(C)(C)O2 [D9 THCA, delta-9-tetrahydrocannabinolic acid]	1.36
C=C(C)[C@@H]1CCC(C)=C[C@H]1c1c(O)cc(CCC)cc1O [CBDV, cannabidivarin]	0.19
CCCCCc1cc(O)c2c(c1)OC(C)(CCC=C(C)C)C=C2 (stereo not drawn) [CBC, cannabichromene]	0.28
CCCCCc1cc(O)c2c(c1)OC1(C)CCC3C1C2C3(C)C (stereo not drawn) [CBL, cannabicyclol]	0.51
CCCc1cc(O)c2c(c1)OC(C)(C)[C@@H]1CCC(C)=C[C@@H]21 [THCV, delta-9-tetrahydrocannabivarin]	3.25

----------
Assay overview: Stability of cannabinoid and Vitamin E components of Beverage 2 (AB Red) stored at 8° C. and 21-25° C., LCMSMS over 570 days
Setup conditions: 21-25° C., 330 days

Molecule	Units of measure	Stability of Cannabinoids in AB Red
CCCCCc1cc(O)c2c(c1)OC(C)(CCC=C(C)C)C=C2 (stereo not drawn)	µg/mL	0.29
C=C(C)[C@@H]1CCC(C)=C[C@H]1c1c(O)cc(CCC)cc1O	µg/mL	0.19
CCCCCc1cc(O)c(C/C=C(\C)CCC=C(C)C)c(O)c1	µg/mL	4.57
CCCCCc1cc2c(c(O)c1C(=O)O)[C@@H]1C=C(C)CC[C@H]1C(C)(C)O2 [D9 THCA, delta-9-tetrahydrocannabinolic acid]	µg/mL	1.28
CCCc1cc(O)c2c(c1)OC(C)(C)[C@@H]1CCC(C)=C[C@@H]21 [THCV, delta-9-tetrahydrocannabivarin]	µg/mL	3.19
CCCCCc1cc(O)c2c(c1)OC(C)(C)c1ccc(C)cc1-2	µg/mL	2.75
CCCCCc1cc(O)c2c(c1)OC(C)(C)[C@@H]1CCC(C)=C[C@@H]21 [D9 THC, delta-9-tetrahydrocannabinol, reference compound]	µg/mL	12.1
C=C(C)[C@@H]1CCC(C)=C[C@H]1c1c(O)cc(CCCCC)c(C(=O)O)c1O	µg/mL	1.65
CCCCCc1cc(O)c2c(c1)OC1(C)CCC3C1C2C3(C)C (stereo not drawn)	µg/mL	0.50

----------
Assay overview: Stability of cannabinoid and Vitamin E components of Beverage 1 (AB White) stored at 8° C. and 21-25° C., LCMSMS over 570 days
Assay type: physicochemical
Setup conditions: beverage stored at 8° C., day 150
Measured property: Stability in AB White, 8° C. (content by LCMSMS)

Molecule	Test result
CCCCCc1cc(O)c2c(c1)OC(C)(CCC=C(C)C)C=C2 (stereo not drawn)	0.314 µg/mL
CCCCCc1cc(O)c(C/C=C(\C)CCC=C(C)C)c(O)c1	4.83 µg/mL
CCCCCc1cc(O)c2c(c1)OC1(C)CCC3C1C2C3(C)C (stereo not drawn)	0.540 µg/mL

----------
Assay overview: Stability of cannabinoid and Vitamin E components of Beverage 2 (AB Red) stored at 8° C. and 21-25° C., LCMSMS over 570 days
Setup conditions: 8° C., 15 days

Compound	Units of measure	Stability of Cannabinoids in AB Red
CCCCCc1cc(O)c2c(c1)OC(C)(C)c1ccc(C)cc1-2 [CBN, cannabinol]	µg/mL	2.77
C=C(C)[C@@H]1CCC(C)=C[C@H]1c1c(O)cc(CCCCC)c(C(=O)O)c1O [CBDA, cannabidiolic acid]	µg/mL	1.67
CCCCCc1cc(O)c2c(c1)OC(C)(C)[C@@H]1CCC(C)=C[C@@H]21 [D9 THC, delta-9-tetrahydrocannabinol, reference compound]	µg/mL	12.9
CCCCCc1cc(O)c2c(c1)OC1(C)CCC3C1C2C3(C)C (stereo not drawn) [CBL, cannabicyclol]	µg/mL	0.510
CCCCCc1cc(O)c2c(c1)OC(C)(CCC=C(C)C)C=C2 (stereo not drawn) [CBC, cannabichromene]	µg/mL	0.292
CCCCCc1cc2c(c(O)c1C(=O)O)[C@@H]1C=C(C)CC[C@H]1C(C)(C)O2 [D9 THCA, delta-9-tetrahydrocannabinolic acid]	µg/mL	1.33
CCCc1cc(O)c2c(c1)OC(C)(C)[C@@H]1CCC(C)=C[C@@H]21 [THCV, delta-9-tetrahydrocannabivarin]	µg/mL	3.19
CCCCCc1cc(O)c(C/C=C(\C)CCC=C(C)C)c(O)c1 [CBG, cannabigerol]	µg/mL	4.68
C=C(C)[C@@H]1CCC(C)=C[C@H]1c1c(O)cc(CCC)cc1O [CBDV, cannabidivarin]	µg/mL	0.194
